System: DU-145 prostate
Test: NCI tumour cell line growth inhibition, 48 h
Below, each of the compounds is paired with its reported TGI value.
QUANTITY KIND: TGI

> print(dat)
                                    compound  quantity.kind     value
 1                Cc1ccc(/C=C2\CCCCCC2=O)cc1            TGI  > 100 µM
 2  CC(=O)Oc1cc(/C=C/c2ccc(O)cc2)cc(OC(C)=O)c1            TGI  > 100 µM
 3  Oc1c(Cl)cc(CN(Cc2cc(Cl)c(O)c(Cl)c2)C2CCCCC2)cc1Cl            TGI  > 100 µM
 4            COc1ccccc1Nc1nc2ccccc2c2occc12            TGI   > 50 µM
 5  O=[N+]([O-])c1cc2ccc1OCc1cccc(n1)COc1ccc(cc1[N+](=O)[O-])C=NCCCCCCCCN=C2            TGI  > 100 µM
 6  O=C1Nc2ccccc2/C1=N/N1C(=O)/C(=C/c2ccccc2S)N=C1c1ccccc1            TGI  > 100 µM
 7                      OCc1ncc(-c2ccccc2)s1            TGI  > 100 µM
 8  CNC(=O)OCc1nc(N=[N+]=[N-])n(C)c1COC(=O)NC            TGI  > 100 µM
 9         COc1ccc(Nc2ncc(-c3ccccc3)o2)cc1OC            TGI   > 25 µM
10  O=c1oc2c(cc1-c1ccccc1)C(O)Oc1ccccc1-2 (stereo unspecified)            TGI  > 100 µM
11  CCOC(=O)C(O)Cc1cnc2ccccc2n1 (stereo unspecified)            TGI  > 100 µM
